Can you tell me hAMYR3 Potency, 1% HSA, EC50 [pM] for the items I'm about to list?
experimentalSystem: T1, human amylin-3(a) receptor (human, UniProt P30988 25-474; O60896 24-148)
T1 sequence (looked up) 1: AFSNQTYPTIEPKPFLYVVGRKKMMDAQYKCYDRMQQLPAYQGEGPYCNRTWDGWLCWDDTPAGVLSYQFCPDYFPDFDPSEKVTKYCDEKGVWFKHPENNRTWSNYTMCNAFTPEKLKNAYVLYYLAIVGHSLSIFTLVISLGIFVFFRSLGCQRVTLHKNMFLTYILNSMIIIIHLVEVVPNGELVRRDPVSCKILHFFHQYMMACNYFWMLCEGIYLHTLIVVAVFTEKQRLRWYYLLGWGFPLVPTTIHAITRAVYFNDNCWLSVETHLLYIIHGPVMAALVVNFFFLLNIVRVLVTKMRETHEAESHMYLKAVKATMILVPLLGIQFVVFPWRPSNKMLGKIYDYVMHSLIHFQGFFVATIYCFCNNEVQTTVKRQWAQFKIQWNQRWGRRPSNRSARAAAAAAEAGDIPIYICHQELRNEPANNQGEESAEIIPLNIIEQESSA
T1 sequence (looked up) 2: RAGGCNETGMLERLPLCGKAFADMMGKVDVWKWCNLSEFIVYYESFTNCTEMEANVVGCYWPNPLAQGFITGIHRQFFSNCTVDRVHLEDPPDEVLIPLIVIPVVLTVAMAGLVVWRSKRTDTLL
assayProcedure: cell-based or functional assay
Numbered stars: 1 amine (or outer) side, 2 acyl side, 3 side chain; on linkers, the order of the positions; unused ones are H or OH. Square brackets hold non-standard residues; d marks the D form. Side chains are listed from the residue outwards. * marks the point of attachment. C18 diacid = O=C(O)CCCCCCCCCCCCCCCCC(=O)*; γGlu = O=C(O)[C@H](CCC(=O)[*:2])N[*:1]; AEEA = NCCOCCOCC(=O)O; Aib = CC(C)(N)C(=O)O
One number for each entry, in pM.

Compound 92 (peptide) peptide: H[Aib]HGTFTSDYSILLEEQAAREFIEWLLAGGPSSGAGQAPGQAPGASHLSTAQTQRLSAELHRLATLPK([AEEA-AEEA-γGlu-C18 diacid])TETGSGSP-NH2
75.1

Req: Recorded hAMYR3 Potency, 1% HSA, EC50 [pM] for Compound 72 (peptide) peptide: Y[Aib]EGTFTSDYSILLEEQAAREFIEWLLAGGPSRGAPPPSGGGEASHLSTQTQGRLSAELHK([AEEA-AEEA-γGlu-C18 diacid])LATLPRTETGSGSP-NH2 , please?
Resp: 589
